The values you see were collected from PubChem BioAssay.

assay: MELAS cybrid and Rieske KO viability enhancers – cell-based, MELAS cybrids, Rieske KO mouse fibroblasts, CellTiter-Glo, primary screen (AID 1508586); conditions: MELAS cybrid survival, low glucose, CellTiter-Glo 48 h; stronger effect = higher value;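 further: z relative to plate mean and SD of compound and empty wells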
Activity calls are given as the source filed them.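 How the source made its calls: active means mean z-score across replicates of 1.96 or higher in either the MELAS or the Rieske mutant cell line; inactive means the rest.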
result-type: z-score

compound="Cc1nsc(NC(=O)NC2CCc3ccccc3C2)n1 (stereo unspecified)" result_type=z-score result="-0.269 (inactive)"
compound="O=C(CS(=O)Cc1ccco1)NCC=CCOc1cc(CN2CCCCC2)ccn1 (stereo unspecified)" result_type=z-score result="-0.242 (inactive)"

For each listed entry, give its z-score.
1. CCC(=O)O[C@@]1(C(=O)CCl)C(C)C[C@H]2[C@@H]3CC(F)C4=CC(=O)C=C[C@]4(C)[C@]3(F)C(O)C[C@@]21C (stereo partly specified)
2. CCCCC[C@H](O)/C=C/[C@@H]1[C@@H](C/C=C\CCCC(=O)O)[C@@H](O)C[C@H]1O (tested in a mixture with another compound)
3. CC1=C(CCN2CCC3(CC2)C(=O)N(C(C)C)C(=O)N3C)C(C)(C)CCC1

Resp:
-0.347 (inactive)
-0.0339 (inactive)
-0.0598 (inactive)

###

test: MELAS cybrid and Rieske KO viability enhancers – cell-based, MELAS cybrids, Rieske KO mouse fibroblasts, CellTiter-Glo, primary screen (AID 1508586); conditions: Rieske KO mouse fibroblast survival, low glucose, CellTiter-Glo 72 h;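 further: z relative to plate mean and SD of compound and empty wells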
result-type: z-score
One number for each entry.

compound=CCOC(=O)c1c(C)nn(-c2ccc(N)cc2)c1C result_type=z-score result=-0.884
compound=CCn1ncc(NC(=O)Cn2nc(C)c(-c3cccc(C(C)=O)c3)c2C)n1 result_type=z-score result=-0.567
compound=C1=CCOCc2cc(ccc2OCCN2CCCC2)Nc2nccc(n2)-c2cccc(c2)COC1 result_type=z-score result=-5.03
compound="COC(=O)c1c(NC(=O)C2CCCO2)c2cc(NCc3ccccn3)cnc2n1CCc1ccccc1 (stereo not given)" result_type=z-score result=-0.0393

// CC(=O)N1CCCC(Cn2cnc3scc(-c4cc(C)ccc4C)c3c2=O)C1 (stereo not given) : z-score value = -0.378

###

test: viability loss with induced miR-34 in A549 – imaging, A549 dox-inducible miR-34, nuclei and caspase counts, primary screen (AID 1347080); details: A549 miR-34 inducible, Hoechst nuclei count, 48 h; measured here: total cells without miR-34 induction
Please provide measured cell count for the entries that follow.
Give bare numbers.

A selection of reference data follows.
compound="CCC1OC(=O)C(C)C(OC2C[C@@](C)(OC)C(O)C(C)O2)C(C)C(OC2OC(C)CC(N(C)C)C2O)[C@](C)(O)CC(C)C(=NOCOCCOC)C(C)C(O)[C@]1(C)O (some centres undefined)" result_type="cell count" result=10200
compound="CCOC(=O)C(CCc1ccccc1)NC1CCCN2CCCC(C(=O)O)N2C1=O (centres undefined)" result_type="cell count" result=8150

For each listed entry, give its cell count.
1. Cc1nc(NC(=O)NCc2cccc(Cl)c2)nn1C
2. C=C1C(=CC=C2CCC[C@]3(C)C(C(C)CCCC(C)(C)O)CC[C@@H]23)CC(O)CC1O (some centres undefined)
3. CC1(C)SC2C(NC(=O)C(C(=O)O)c3ccsc3)C(=O)N2C1C(=O)O (centres undefined)
4. O=c1cc(-c2ccccc2F)[nH]c2cc3c(cc12)OCO3

Resp:
1: 9160; 2: 7160; 3: 9600; 4: 1540

For each listed entry, give its cell count.
1. CC1(C)S[C@@H]2[C@H](NC(=O)C(C(=O)O)c3ccsc3)C(=O)N2[C@H]1C(=O)O (some centres undefined)
2. COc1ccc(-c2cc(=O)c3c(O)cc(OC4OC(COC5OC(C)C(O)C(O)C5O)C(O)C(O)C4O)cc3o2)cc1O (centres undefined)
3. OC1CO[C@H]2C(O)CO[C@H]12 (some centres undefined)
4. O=C(O)c1cc(Br)ccc1NS(=O)(=O)c1ccc(Cl)cc1

Resp:
1. 10000
2. 8300
3. 9750
4. 10000

###

assay: viability loss with induced miR-34 in A549 – imaging, A549 dox-inducible miR-34, nuclei and caspase counts, primary screen (AID 1347080); conditions: A549 miR-34 inducible, Hoechst nuclei count, 48 h; measured here: relative caspase fold change +Dox/-Dox
result-type: fold change
Give bare numbers.

A selection of reference data follows.
compound="CCN1CCN(C(=O)NC(C(=O)NC2C(=O)N3C2SC(C)(C)C3C(=O)O)c2ccccc2)C(=O)C1=O (centres undefined)" result=1.67
compound=O=C1CN(C(=O)c2ccncc2)CCN1Cc1ccc2c(c1)OCO2 result=1.59
compound=C[C@](Cc1ccc(O)c(O)c1)(NN)C(=O)O result=1.36
compound=COc1ccc2cc([C@@H](C)C(=O)O)ccc2c1 result=1.43
compound="CC(=O)OC1C=C2C(Cl)=C[C@@H]3[C@H](CC[C@@]4(C)[C@H]3CC[C@]4(OC(C)=O)C(C)=O)[C@@]2(C)CC1 (some centres undefined)" result=1.61

For each listed entry, give its fold change.
1. O=C1NC(C(=O)O)CS1 (centres undefined)
2. COc1cc(C2c3cc4c(cc3C(OC3OC5COC(c6cccs6)OC5C(O)C3O)C3COC(=O)[C@H]23)OCO4)cc(OC)c1O (some centres undefined)
3. CCC(=O)O[C@]1(C(=O)SCF)C(C)CC2C3CC(F)C4=CC(=O)C=C[C@]4(C)[C@@]3(F)C(O)C[C@@]21C (some centres undefined)
4. NC(=O)CCCSc1nc(N)nc(-c2c(Cl)cc3c4c(cccc24)COC3)n1

Resp:
1: 1.73; 2: 0.936; 3: 1.65; 4: 0.479

###

experiment: drug combination growth inhibition, ovarian cancer – cell-based, oncology-focused library, rucaparib conditional, profiling panel (AID 1508598); conditions: patient-derived ovarian cancer cells, CellTiter-Glo viability, 144 h; at 0.0195 µM; OCI-C5x cells; without rucaparib; stronger effect = lower value
Please provide measured viability for the entries that follow.
One number for each entry, in %.

item_smiles=COc1cccc2c1C(=O)c1c(O)c3c(c(O)c1C2=O)C[C@@](O)(C(=O)CO)C[C@H]3O[C@H]1C[C@H](N)[C@@H](O)[C@H](C)O1 readout_unit=% result=75.5
item_smiles=C[C@]12CC[C@H]3c4ccc(O)cc4CC[C@H]3[C@@H]1CC[C@H]2O readout_unit=% result=115
item_smiles=N[C@@H]1CCCN(c2c(/C=C3\SC(=O)NC3=O)cccc2-c2ccccc2)C1 readout_unit=% result=108

Below: the item to evaluate.
// C=C1/C(=C/C=C2\CCC[C@@]3(C)[C@H]2CC[C@H]3[C@H](C)/C=C/[C@@H](C)C(C)C)C[C@H](O)C[C@@H]1O : viability value = 100

###

test: drug combination growth inhibition, ovarian cancer – cell-based, oncology-focused library, rucaparib conditional, profiling panel (AID 1508598); conditions: patient-derived ovarian cancer cells, CellTiter-Glo viability, 144 h; at 0.00122 µM; OCI-P5x cells; without rucaparib
Activity calls are given as the source filed them.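 How the source made its calls: active means normalized viability below 100% at a tested concentration; inactive means the rest.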
Hi! Could you answer with just one of these? t = active, f = inactive

Example results:
item_smiles=COc1cccc2c1C(=O)c1c(O)c3c(c(O)c1C2=O)C[C@@](O)(C(=O)CO)C[C@H]3O[C@H]1C[C@H](N)[C@H](O)[C@H](C)O1 assigned_label=f
item_smiles=CC#C[C@@]1(O)CC[C@H]2[C@@H]3CCC4=CC(=O)CCC4=C3[C@H](c3ccc(N(C)C)cc3)C[C@@]21C assigned_label=t
item_smiles=N[C@@H]1CCCN(c2c(/C=C3\SC(=O)NC3=O)cccc2-c2ccccc2)C1 assigned_label=f

Req: Could you please tell me the result logged for CCNC(=O)c1noc(-c2cc(Cl)c(O)cc2O)c1-c1ccc(OC)cc1 in this assay?
Resp: f

###

assay: viability loss with induced miR-34 in A549 – imaging, A549 dox-inducible miR-34, nuclei and caspase counts, primary screen (AID 1347080); details: A549 miR-34 inducible, Hoechst nuclei count, 48 h; measured here: relative caspase fold change +Dox/-Dox
Okay, here is how we bin by fold change: low class = under 0.6, middle class = from 0.6 up to 1, high class = 1 and over

Example results:
compound="CCc1noc(Cn2cnc3sc4c(c3c2=O)CCC(C)C4)n1 (stereo not given)" assigned_label="high class"
compound=CNc1nc(-c2cccc(OC)c2)ncc1F assigned_label="high class"
compound="Nc1nc(=O)n(C2CSC(CO)O2)cc1F (stereo not given)" assigned_label="middle class"
compound=Nc1cc(F)ccc1NC(=O)C=Cc1cnn(CC=Cc2ccccc2)c1 assigned_label="low class"
compound="CNCC(O)c1ccc(OC(=O)C(C)(C)C)c(OC(=O)C(C)(C)C)c1 (stereo not given)" assigned_label="middle class"

Req: Into which category would you place COc1ccc2[nH]cc(CCC(=O)O)c2c1 ?
Resp: low class

Req: Into which category would you place CCCCC/C=C\C[C@@H](O)/C=C/C=C/C=C\[C@@H](O)CCCC(=O)O ?
Resp: high class

Req: Into which category would you place Cn1cc(-c2[nH]c3cc(NC(=O)C(N)C4CCCCC4)cc4c3c2C=NNC4=O)cn1 (stereo not given) ?
Resp: high class

Req: Into which category would you place CON=C(C(=O)NC1C(=O)N2C(C(=O)OCOC(=O)C(C)(C)C)=C(C=Cc3scnc3C)CS[C@H]12)c1csc(N)n1 (stereo not given in full) ?
Resp: low class

Req: Into which category would you place CCCCC[C@@H](O)/C=C/[C@H]1[C@H](C/C=C\CCCC(=O)O)[C@H](O)C[C@@H]1O ?
Resp: middle class
